molecular target: ErbB2 insYVMA (HER2-YVMA, SEQ ID NO: 2) (Homo sapiens, UniProt P04626, INS775YVMA/P1170A); test: biochemical; details: ErbB2 insYVMA enzyme assay; read-out: Assay 1 IC50
Sequence (P04626 with tags, fused parts or gaps INS775YVMA/P1170A limits assumed): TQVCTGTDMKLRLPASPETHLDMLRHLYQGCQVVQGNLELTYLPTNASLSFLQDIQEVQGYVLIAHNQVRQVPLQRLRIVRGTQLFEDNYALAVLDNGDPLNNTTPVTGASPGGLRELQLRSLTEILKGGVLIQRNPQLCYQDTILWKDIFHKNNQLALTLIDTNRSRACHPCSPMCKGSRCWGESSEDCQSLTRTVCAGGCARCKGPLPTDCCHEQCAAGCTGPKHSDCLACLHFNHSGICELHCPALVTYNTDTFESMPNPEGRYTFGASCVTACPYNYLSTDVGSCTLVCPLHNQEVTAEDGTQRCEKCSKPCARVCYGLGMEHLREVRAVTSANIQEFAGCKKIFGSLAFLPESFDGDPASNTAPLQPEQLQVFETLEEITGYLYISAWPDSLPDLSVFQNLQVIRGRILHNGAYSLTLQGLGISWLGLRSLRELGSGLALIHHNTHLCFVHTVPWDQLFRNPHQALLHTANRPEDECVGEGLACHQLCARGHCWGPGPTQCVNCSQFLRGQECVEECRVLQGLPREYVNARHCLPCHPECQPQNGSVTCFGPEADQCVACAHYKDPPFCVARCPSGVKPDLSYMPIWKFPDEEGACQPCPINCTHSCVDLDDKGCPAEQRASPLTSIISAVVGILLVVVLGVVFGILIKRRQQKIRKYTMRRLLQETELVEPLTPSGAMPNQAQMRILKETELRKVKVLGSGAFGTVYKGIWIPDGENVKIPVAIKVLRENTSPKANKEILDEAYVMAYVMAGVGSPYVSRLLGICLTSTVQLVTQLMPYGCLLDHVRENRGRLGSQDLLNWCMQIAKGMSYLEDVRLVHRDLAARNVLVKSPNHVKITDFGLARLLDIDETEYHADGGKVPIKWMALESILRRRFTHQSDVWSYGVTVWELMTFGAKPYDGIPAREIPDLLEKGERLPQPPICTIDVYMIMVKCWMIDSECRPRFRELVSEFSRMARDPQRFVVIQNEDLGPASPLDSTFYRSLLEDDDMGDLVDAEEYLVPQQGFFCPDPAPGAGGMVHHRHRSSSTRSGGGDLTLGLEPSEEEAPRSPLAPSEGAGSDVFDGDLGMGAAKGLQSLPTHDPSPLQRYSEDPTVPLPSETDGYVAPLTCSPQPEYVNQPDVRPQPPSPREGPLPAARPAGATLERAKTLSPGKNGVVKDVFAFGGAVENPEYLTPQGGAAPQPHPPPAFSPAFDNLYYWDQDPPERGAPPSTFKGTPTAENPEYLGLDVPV
Please go through the items and note down their pIC50.
Please note pIC50 is a logarithmic value: minus log10 of concentration in mol/L. Answer with that number alone.

For Cc1cc(Nc2ncnc3cnc(NC4CC4)nc23)ccc1Oc1ccc2c(c1)ncn2C , what is its reported pIC50? 7.96

Queued: Cc1cc(Nc2ncnc3cnc(N4C[C@H]5C[C@@H]4C[C@H]5O)nc23)ccc1Oc1ccc2c(c1)ncn2C 7.73

// query: Cc1cc(Nc2ncnc3cnc(N4CC(C)(O)C4)nc23)ccc1Oc1ccc2c(c1)ncn2C 7.55

Try this compound too: Cc1cc(Nc2ncnc3cnc(N4CCO[C@H]5C[C@H]54)nc23)ccc1Oc1ccc2c(c1)ncn2C [Example 161] 7.74

Another compound to look at: Cc1c(Oc2ccn3ncnc3c2)ccc(Nc2ncnc3cnc(N(C)CC(C)(C)O)nc23)c1F 7.78

Please give the result for Cc1cc(Nc2ncnc3cnc(N(C)[C@@H]4CCC[C@H]4O)nc23)ccc1Oc1ccc2c(c1)ncn2C too. 7.67

Then this compound: Cc1cc(Nc2ncnc3cnc(N4CCOC5CC54)nc23)ccc1Oc1ccn2ncnc2c1 (centres unmarked) 7.46

Next: CN(C)c1ncc2ncnc(Nc3ccc(Oc4ccn5ncnc5c4)c(Cl)c3)c2n1 8.31
